- Experiment summary: Human HepG2 cell viability assay in 384 well format
- Assay type: toxicity, cell-based
- Design: dose 125 nL, time 70.5 hour; concentration not given beside the values
- Test context: HepG2 cells, read-out: Inhibition
Listing of entries alongside the reported cytotoxicity at 70.5 h.
The answer is to be given in %; state only the numeric part.

O=C1COC2(CCN(Cc3cccs3)CC2)CN1c1ccccc1    -4.47
O=C(N[C@H]1CN[C@H]2CCCO[C@H]21)c1cscn1    -4.74
COC(=O)CCCn1ccnc1C(C)c1ccccc1 (stereo unspecified)    -1.4
CCc1noc(CN2CCCN(C(C)=O)CC2)n1    -6.42
CC(=O)Nc1nc(CN2CCCC2Cn2cncn2)cs1 (stereo unspecified)    35.6

Query :: Any idea what cytotoxicity at 70.5 h was measured for COCCN1CCc2ncnc(NC3CC3)c2CC1 ?
Result :: -2.68

---

- Experiment summary: Human HepG2 cell viability assay in 384 well format
- Type: toxicity, cell-based
- Parameters: dose 125 nL, time 70.5 hour; concentration not given beside the values
- Test context: HepG2 cells, read-out: Inhibition
Property label: cytotoxicity at 70.5 h (%)
The answer is to be given in %; state only the numeric part.

See these solved cases before continuing.
Cc1oncc1C(=O)N1CCC2(CCN(Cc3ccccn3)C2=O)C1 (stereo unspecified)    -0.113
CC(C)OCc1ncn2c1CN(Cc1cnn(C)c1)CCC2    0.691
Cc1ccnc(CNC(=O)C2CC(=O)N(CCN(C)C)C2)c1 (stereo unspecified)    -7.06

Query :: Any idea what cytotoxicity at 70.5 h was measured for Cc1n[nH]c(C)c1C1CCCN1C(=O)NCC(=O)Nc1ccccc1 (stereo unspecified) ?
Result :: 6.46

Query :: And what about the compound CC1NC(=O)COC12CCN(C(=O)Cc1ccsc1)CC2 (stereo unspecified) ?
Result :: 4.29

---

Listing of entries alongside the reported cytotoxicity at 70.5 h.
- Experiment summary: Human HepG2 cell viability assay in 384 well format
- Assay type: toxicity, cell-based
- Design: dose 125 nL, time 70.5 hour; concentration not given beside the values
- Test context: HepG2 cells, read-out: Inhibition
The answer is to be given in %; state only the numeric part.

COc1ccc2c(ccn2CCC(=O)O)c1    27.9
Cc1cnc(CN(C)Cc2cccc(OC(F)(F)F)c2)cn1    -3.82

Query :: Any idea what cytotoxicity at 70.5 h was measured for Cc1nn(C)c(C)c1-c1c(-c2ccccc2)ncn1[C@H](CO)C(=O)O ?
Result :: -4.59

Query :: And what about the compound CC(C)c1nc(C2CCCN2CCN2CCCCC2)no1 (stereo not drawn) ?
Result :: -5.16

Query :: And what about the compound Cc1nc2c(c(=O)n1C)CN(C(=O)C1CCCN(C(=O)N(C)C)C1)C2 (stereo not drawn) ?
Result :: -0.169

Query :: And what about the compound Cc1ccc(N2C[C@@H]3OCCN(Cc4c(C)noc4C)[C@@H]3C2)nn1 ?
Result :: -1.63

---

- Experiment summary: Human HepG2 cell viability assay in 384 well format
- Type: toxicity, cell-based
- Set-up: dose 125 nL, time 70.5 hour; concentration not given beside the values
- Test context: HepG2 cells, read-out: Inhibition
Listing of entries alongside the reported cytotoxicity at 70.5 h.
The answer is to be given in %; state only the numeric part.

See these solved cases before continuing.
Cc1ccc(-c2ccc(=O)n(CC(=O)Nc3nccs3)n2)cc1    -4.07
CCOc1ccc(NC(C)C(=O)Nc2cc(C)no2)cc1 (stereo unspecified)    -5.28
O=C(C1NCCc2[nH]cnc21)N1CCC2(C=Cc3ccccc32)CC1 (stereo unspecified)    -7.07
CN1CCOC(C)(C(=O)Nc2nc(C(C)(C)C)cs2)C1 (stereo unspecified)    13.5
COc1ccc(OC)c(Nc2nc3c(C)nn(C)c3c(=O)n2C)c1    7.63
CCCn1ccnc1CN1C[C@@H](NC(C)=O)[C@H](c2ccc(C)cc2)C1    -0.633
Cc1cccc(CN2C(=O)C[C@@H]3[C@@H]2CCN3Cc2ccsc2)n1    -8.36
FC(F)(F)C1CCCn2c(CNCc3ccco3)nnc21 (stereo unspecified)    35.4
CC(C)N1[C@H](Cn2cncn2)C[C@@H]2CN(Cc3ccsc3)CC[C@@H]21    -2.74
CN(CC(=O)Nc1cc(C(C)(C)C)n[nH]1)S(C)(=O)=O    12

Query :: Any idea what cytotoxicity at 70.5 h was measured for CCc1nc(CN(C)C(=O)NCc2cccc(NC(C)=O)c2)cs1 ?
Result :: -10.2
